Quick reference for PBM E-score among some sequences
Biological target: Stp1 (UniProt B3LFK1)
Sequence: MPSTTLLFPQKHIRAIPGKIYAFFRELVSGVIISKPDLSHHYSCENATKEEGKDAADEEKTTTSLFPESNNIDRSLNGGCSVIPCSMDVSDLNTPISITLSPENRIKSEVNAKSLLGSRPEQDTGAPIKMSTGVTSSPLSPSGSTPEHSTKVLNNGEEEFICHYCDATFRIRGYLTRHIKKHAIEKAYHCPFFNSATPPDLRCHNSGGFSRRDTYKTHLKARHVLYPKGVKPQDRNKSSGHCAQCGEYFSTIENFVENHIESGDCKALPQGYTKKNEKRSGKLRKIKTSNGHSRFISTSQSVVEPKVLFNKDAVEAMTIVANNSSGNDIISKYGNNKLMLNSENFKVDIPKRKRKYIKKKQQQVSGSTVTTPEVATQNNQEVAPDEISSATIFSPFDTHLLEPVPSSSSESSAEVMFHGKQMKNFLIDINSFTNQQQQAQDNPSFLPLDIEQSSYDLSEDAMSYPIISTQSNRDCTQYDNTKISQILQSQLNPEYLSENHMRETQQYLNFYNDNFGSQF
Assay: PBM E-score (8-mer binding enrichment) (E-score (-0.5 to 0.5)); higher = stronger / more preferred TF binding
Conditions: protein concentration: 200 nM; construct: GST-full length
Over roughly 33,000 sequences, “E-score (-0.5 to 0.5)” has its median near -0.016; the highest 2% begin near 0.32. This is one part of a sample in which the highest values are shown more often than they occur.
quantity: PBM E-score

> print(dat)
    query.sequence     quantity    result
 1        GCCGCAAC  PBM E-score     0.366
 2        AGGCTCAG  PBM E-score   -0.0826
 3        CGGCTCAA  PBM E-score     0.351
 4        ATTAGATA  PBM E-score      0.11
 5        CAAGGTTC  PBM E-score    -0.124
 6        AATGCCGG  PBM E-score     0.137
 7        CCGGTAGG  PBM E-score    0.0318
 8        AACGCCGA  PBM E-score     0.292
 9        GAAAGGCC  PBM E-score     0.272
10        GGCGGCGA  PBM E-score     0.276
11        CTCGCGGA  PBM E-score   -0.0275
12        GAATCTCC  PBM E-score    -0.122
13        AGCTGCAC  PBM E-score    -0.111
14        ATCAACCG  PBM E-score   -0.0921
15        GAGGCAGC  PBM E-score    0.0343
16        CGCGCGGC  PBM E-score     0.483
17        GCAAGGCC  PBM E-score     0.151
18        CCTCCAGC  PBM E-score    -0.217
19        CGCGCTGC  PBM E-score     0.122
20        AACGCCAC  PBM E-score     0.245
21        GCCGCAGA  PBM E-score     0.372
22        GTAGAGTA  PBM E-score    0.0935
23        CGTCAGAG  PBM E-score   -0.0954
24        AACACTTA  PBM E-score    0.0357
25        AAACTCGG  PBM E-score   -0.0615
26        ACTAACAT  PBM E-score    0.0936
27        AACGCCCC  PBM E-score     0.213
28        AAACTGCG  PBM E-score   -0.0893
29        CTCTGGCA  PBM E-score    -0.203
30        TACCGCAA  PBM E-score     0.117
31        TAGGGGAA  PBM E-score    -0.171
32        AATAACTG  PBM E-score    0.0806
33        GCTGATCC  PBM E-score    -0.116
34        AAAAGGCA  PBM E-score     0.359
35        AACGCCTA  PBM E-score    0.0856
36        AACGCCGC  PBM E-score      0.47
37        AGGCGCCG  PBM E-score     0.462
38        TGCCGCAA  PBM E-score     0.333
39        GGCGGCCC  PBM E-score    0.0299
40        CGGCTCCC  PBM E-score     0.187
41        CGACAGCC  PBM E-score   -0.0511
42        CAAAGGCA  PBM E-score     0.184
43        AGCGGCCC  PBM E-score  -0.00454
44        GGCCGCAC  PBM E-score     0.289
45        GCGGCAGA  PBM E-score     0.261
46        GGGCGCCA  PBM E-score     0.309
47        GCGGCAGC  PBM E-score     0.334
48        GTGTAGCA  PBM E-score    -0.202
49        CGCCATGC  PBM E-score     0.226
50        AAAAGGCG  PBM E-score      0.34
51        AATGCCGA  PBM E-score     0.303
52        AGGCTCCA  PBM E-score   -0.0273
53        CGAGAAAG  PBM E-score   -0.0578
54        CGGCTCCA  PBM E-score     0.425
55        CGGAGCCG  PBM E-score     0.302
56        AGGCGTCG  PBM E-score     0.253
57        CGCCGCAG  PBM E-score     0.436
58        AACGCCGT  PBM E-score     0.482
59        ACTTATCC  PBM E-score   -0.0589
60        CGCCGCAC  PBM E-score     0.478
61        AGCGCGGC  PBM E-score     0.402
62        CCGACCAG  PBM E-score    -0.144
63        CGGATAGA  PBM E-score     0.228
64        ACAAGGCA  PBM E-score     0.315
65        AACGCCTC  PBM E-score     0.225
66        CGCGGCCA  PBM E-score     0.269
67        ATCTTTAG  PBM E-score    0.0678
68        ACTCTCAG  PBM E-score    0.0178
69        AACGCCTT  PBM E-score     0.328
70        AGCGCGGG  PBM E-score     0.098
71        AGTCTTCC  PBM E-score   -0.0735
72        ACCGGCGG  PBM E-score    0.0942
73        GCATTTCC  PBM E-score     0.146
74        TAACAGCA  PBM E-score     0.174
75        CGCCGGCG  PBM E-score     0.312
76        AATGCCTC  PBM E-score     0.308
77        CGCGCGTC  PBM E-score      0.16
78        CAAAGGCG  PBM E-score     0.129
79        GAAGTGCC  PBM E-score     0.309
80        AGGTGGCC  PBM E-score    -0.294
81        AGCCGCAG  PBM E-score     0.258
82        CCCCGCAG  PBM E-score   -0.0786
83        ATGAGTAC  PBM E-score    0.0493

Entry source: the supplement of paper PMC3334620
